- Tested on: HT29 colon
- procedure.details: NCI-60 one-dose screen, 48 h (100 = growth as untreated, 0 = no growth, -100 = all killed)
- experimental.parameters: 10 µM unless noted
About 83,000 compounds went through this panel and 20% of them were active in at least one assay; those are over-represented in the sample as a whole.
Mark no (0) for growth values under 60%, and yes (1) for everything at or above.

Solved cases (10 shown):
>  <molecule>
C#Cc1nc(C2=C(C)C(O)CC2)cs1 (stereo not given)

>  <label.value>
yes (1)

$$$$
>  <molecule>
CN1CCN(Cc2ccc(NC(=O)c3cncc(C#Cc4cnc5ccc(N6CCSCC6)nn45)c3)cc2C(F)(F)F)CC1

>  <label.value>
no (0)

$$$$
>  <molecule>
CS(=O)(=O)Nc1ccc(-c2nn(-c3ccc(S(C)(=O)=O)cc3)cc2/C=C/C(=O)c2ccc(NC(=O)CO[N+](=O)[O-])cc2)cc1

>  <label.value>
yes (1)

$$$$
>  <molecule>
CN(C)S(=O)(=O)c1oc(-c2ccccc2)nc1C#N

>  <label.value>
no (0)

$$$$
>  <molecule>
O=C(N/N=C/c1ccc[nH]1)c1[nH]c2ccc(Br)cc2c1-c1ccccc1

>  <label.value>
no (0)

$$$$
>  <molecule>
O=c1/c(=C\c2ccc(-c3ccccc3)o2)sc2nc(-c3ccccc3)nn12

>  <label.value>
yes (1)

$$$$
>  <molecule>
Cc1cccc(/C=C/c2nn3c(-c4ccco4)nnc3s2)c1

>  <label.value>
yes (1)

$$$$
>  <molecule>
COC1CCN(Cc2ccc3c(NNC(=O)c4cnccn4)nc4cc(F)ccc4n23)C1 (stereo not given)

>  <label.value>
no (0)

$$$$
>  <molecule>
O=C1c2c(c3c4cc(Br)ccc4[nH]c3c3ccc4ccccc4c23)C(=O)N1CCO

>  <label.value>
yes (1)

$$$$
>  <molecule>
O=C(N/N=C/c1ccco1)c1[nH]c2ccc(Br)cc2c1-c1ccccc1

>  <label.value>
no (0)

$$$$

Q: Quick check: does Cc1nc2cnc(N)c(C#Cc3cncc(C(=O)Nc4ccc(Cl)c(C(F)(F)F)c4)c3)c2nc1C have growth greater than or equal to 60%?
A: no (0)

Q: Quick check: does C/C(=C(/c1ccc(Cl)cc1)c1ccc(OCCN)cc1)c1ccc(C)cc1 have growth greater than or equal to 60%?
A: yes (1)

Q: Quick check: does CCOC(=O)c1c(Nc2ccccc2)nn2c(N)c(C#N)c(-c3ccccc3)nc12 have growth greater than or equal to 60%?
A: yes (1)

Q: Quick check: does CC(=O)Oc1ccccc1C(=O)Nc1ccc(C(=O)/C=C/c2cccs2)cc1 have growth greater than or equal to 60%?
A: yes (1)

Q: Quick check: does COc1ccc(-c2nc3ccc(-c4nnc(SCC(=O)Nc5ccc(C(C)=O)cc5)o4)cc3[nH]2)cc1 have growth greater than or equal to 60%?
A: yes (1)

Q: Quick check: does COc1ccc(C(=O)/C=C/c2ccc(OCc3ccc(C)cc3)c(OC)c2)cc1OC have growth greater than or equal to 60%?
A: yes (1)

Q: Quick check: does O=c1[nH]c2ccc(Cl)cc2cc1CSc1ccccc1Nc1nccc(-c2ccc(Cl)cc2)n1 have growth greater than or equal to 60%?
A: yes (1)

Q: Quick check: does C#C[C@]1(O)CC[C@H]2[C@@H]3CC=C4c5sc(Nc6ccc(Cl)cn6)nc5CC[C@]4(C)[C@H]3CC[C@@]21C have growth greater than or equal to 60%?
A: no (0)

Q: Quick check: does C#Cc1nc(C2=C(C)C(=O)/C(=N/OC(C)=O)C2)cs1 have growth greater than or equal to 60%?
A: yes (1)

Q: Quick check: does CS(=O)(=O)c1ccc(-c2nc3ccccn3c2/C=N/Nc2nc(-c3ccc(Br)cc3)cs2)cc1 have growth greater than or equal to 60%?
A: yes (1)

Q: Quick check: does COc1ccc(-c2nc3ccc(-c4nnc(SCC(=O)Nc5ccc(C(=O)/C=C/c6ccccc6)cc5)o4)cc3[nH]2)cc1OC have growth greater than or equal to 60%?
A: yes (1)

Q: Quick check: does Clc1ccc2c(NCCCn3ccnc3)c3oc4ccccc4c3nc2c1 have growth greater than or equal to 60%?
A: no (0)

Q: Quick check: does C[C@@H]1CN(c2ccc3ncc(C#Cc4cncc(C(=O)Nc5ccc(CN6CCN(C)CC6)c(C(F)(F)F)c5)c4)n3n2)C[C@H](C)O1 have growth greater than or equal to 60%?
A: no (0)

Q: Quick check: does Nc1cc(-c2c[nH]c3ccc(Cl)cc23)nc2cc(-c3c[nH]c4ccc(Cl)cc34)nn12 have growth greater than or equal to 60%?
A: no (0)

Q: Quick check: does Cc1nc(-c2cc3ccccc3oc2=O)ccc1C(=O)/C=C/c1ccc(N2CCOCC2)cc1 have growth greater than or equal to 60%?
A: yes (1)
